Assay: Solubility measurement (DMSO solution method), McIlvaine buffer pH 4.5 or 6.8
Type: physicochemical
Details: aqueous buffer, kinetic from dmso stock; McIlvaine buffer pH 4.5; DMSO stock diluted to 250 μM; 24 h shaking at ambient temperature; read-out: solubility pH 4.5
quantity: solubility at 24 h

Sample records with solubility at 24 h:
Recorded solubility at 24 h of COCCNC(=O)c1ccn(-c2cc(O[C@@H](C)[C@@H]3[C@@H](OC)CCN3C)nc(-c3onc4c3CCC[C@@]43CCCc4sc(N)c(C#N)c43)n2)n1 [I-55] , please.
> 162 µg/mL

Requested field: solubility at 24 h. Item: C[C@H](Oc1cc(N2CCOC3(COC3)C2)nc(-c2noc3c2CCC[C@@]32CCCc3sc(N)c(C#N)c32)n1)[C@@H]1CCCN1C [II-77]
> 143 µg/mL

Report solubility at 24 h for CO[C@@H]1C[C@@H]([C@H](C)Oc2cc(N3CCN(C)C4(CC4)C3)nc(-c3onc4c3CCC[C@@]43CCCc4sc(N)c(C#N)c43)n2)N(C)C1 [I-50] please.
> 139 µg/mL

Returns the measured solubility at 24 h for the input compound. Input: C[C@H](Oc1cc([C@@H]2CCOC2)nc(-c2noc3c2CCC[C@@]32CCCc3sc(N)c(C#N)c32)n1)[C@@H]1CCCN1C [II-94]
> 126 µg/mL

Others:
# solubility at 24 h lookup, item C[C@H](Oc1cc(C2COCCO2)nc(-c2noc3c2CCC[C@@]32CCCc3sc(N)c(C#N)c32)n1)[C@@H]1CCCN1C (some centres unmarked) [II-95]
> 134 µg/mL
